molecular target: α4β7 integrin (Homo sapiens (Human), UniProt P13612+P26010); assay: Integrin Adhesion Assay: Protocol 1 (MAdCAM-coated plate, RPMI-8866 cells, CellTiter GLO readout); assay type: cell-based; conditions: integrin adhesion assay; determined by at least one of the assays described (protocol not specified)
Sequence (P13612 34-1032): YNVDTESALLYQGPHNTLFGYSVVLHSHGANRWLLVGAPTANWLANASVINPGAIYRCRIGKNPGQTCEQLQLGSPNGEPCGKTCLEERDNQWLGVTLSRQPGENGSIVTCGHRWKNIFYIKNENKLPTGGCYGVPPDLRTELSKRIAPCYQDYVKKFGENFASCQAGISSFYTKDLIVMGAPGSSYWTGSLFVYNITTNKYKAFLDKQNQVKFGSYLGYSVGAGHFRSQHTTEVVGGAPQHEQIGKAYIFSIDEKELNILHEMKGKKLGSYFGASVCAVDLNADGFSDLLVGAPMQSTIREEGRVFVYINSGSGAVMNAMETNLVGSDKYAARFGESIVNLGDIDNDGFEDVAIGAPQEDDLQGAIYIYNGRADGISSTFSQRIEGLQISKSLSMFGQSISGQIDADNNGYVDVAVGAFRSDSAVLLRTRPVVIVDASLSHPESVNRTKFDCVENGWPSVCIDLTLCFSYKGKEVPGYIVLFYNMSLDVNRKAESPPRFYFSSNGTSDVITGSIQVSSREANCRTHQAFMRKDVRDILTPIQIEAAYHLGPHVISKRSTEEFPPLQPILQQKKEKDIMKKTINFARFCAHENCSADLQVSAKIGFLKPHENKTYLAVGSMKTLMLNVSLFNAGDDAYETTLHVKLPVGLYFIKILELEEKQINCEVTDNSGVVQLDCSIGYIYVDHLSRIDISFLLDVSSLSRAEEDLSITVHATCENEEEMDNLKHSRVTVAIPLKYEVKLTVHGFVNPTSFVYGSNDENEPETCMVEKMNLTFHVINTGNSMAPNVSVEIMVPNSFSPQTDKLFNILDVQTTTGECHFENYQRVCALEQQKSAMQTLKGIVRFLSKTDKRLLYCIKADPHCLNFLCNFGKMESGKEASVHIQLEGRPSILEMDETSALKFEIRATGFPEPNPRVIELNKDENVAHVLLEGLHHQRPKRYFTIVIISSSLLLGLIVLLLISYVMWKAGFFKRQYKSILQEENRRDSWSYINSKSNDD
Sequence (P26010 20-798): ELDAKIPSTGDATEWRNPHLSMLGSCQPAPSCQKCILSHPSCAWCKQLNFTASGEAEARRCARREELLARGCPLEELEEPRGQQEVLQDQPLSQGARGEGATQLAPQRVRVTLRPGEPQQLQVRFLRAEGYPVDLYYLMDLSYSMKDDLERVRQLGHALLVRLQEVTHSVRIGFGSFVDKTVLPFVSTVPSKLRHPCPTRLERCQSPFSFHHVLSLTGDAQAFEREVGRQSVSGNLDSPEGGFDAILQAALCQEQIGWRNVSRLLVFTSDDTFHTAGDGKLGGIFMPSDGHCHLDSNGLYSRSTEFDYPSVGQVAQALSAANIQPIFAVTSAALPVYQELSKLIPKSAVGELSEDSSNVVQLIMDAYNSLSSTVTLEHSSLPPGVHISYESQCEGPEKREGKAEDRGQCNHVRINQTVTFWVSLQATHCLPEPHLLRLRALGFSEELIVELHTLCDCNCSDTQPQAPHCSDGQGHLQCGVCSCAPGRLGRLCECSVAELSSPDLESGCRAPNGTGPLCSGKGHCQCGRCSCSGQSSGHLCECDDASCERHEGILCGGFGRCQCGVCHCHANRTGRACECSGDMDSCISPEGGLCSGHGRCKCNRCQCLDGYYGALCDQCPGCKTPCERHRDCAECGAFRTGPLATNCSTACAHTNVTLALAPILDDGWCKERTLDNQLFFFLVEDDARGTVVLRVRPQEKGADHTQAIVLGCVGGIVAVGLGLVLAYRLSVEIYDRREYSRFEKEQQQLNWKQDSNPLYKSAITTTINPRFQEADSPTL
pIC50: −log10 of the molar value.
// pIC50 lookup, one value per entry

Sample answers from the record:
# smiles.str, assay.system, pIC50
measured = [
    ("CN([C@H](CCC(=O)O)C(=O)N[C@@H](Cc1cccc2c(-n3c(=O)ccn(C)c3=O)cccc12)C(=O)O)S(=O)(=O)c1ccccc1", "α4β7 integrin (Homo sapiens (Human), UniProt P13612+P26010)", "6.00 to 7.00"),
    ("Cn1ccc(=O)n(-c2cccc3c(C[C@H](NC(=O)C4C(C)(C)CN(CC(F)(F)F)CC4(C)C)C(=O)O)cccc23)c1=O", "α4β7 integrin (Homo sapiens (Human), UniProt P13612+P26010)", "6.00 to 7.00"),
    ("Cn1ccc(C(F)(F)F)c(-c2cccc3c(C[C@H](NC(=O)c4c(F)cccc4F)C(=O)O)cccc23)c1=O", "α4β7 integrin (Homo sapiens (Human), UniProt P13612+P26010)", "7.00 to 8.00"),
]

Proceed to the following item.
Value of measured pIC50 for the entry `Cn1ccc(=O)n(-c2cccc3c(C[C@H](NC(=O)C(C)(C)CSc4cccc(C(F)(F)F)c4)C(=O)O)cccc23)c1=O` : < 6.00
